- Tested on: Plasmodium falciparum
- Experiment Summary: Plasmodium falciparum sporozoite viability assay; note: in the data most compounds retested in dose-response had high values
- Type: functional, organism-based
Out of some 34,000 compounds screened, about 290 (0.85%) showed an effect of 50% or more. Only a selection was taken, and strong results are over-represented in it overall.
Measured Parameter: Percent Effect (%)
Field format: number, assumed %, no unit text.

Record CN(C)c1ccc(C(=O)N2CCN(CC(O)C(C)(C)C)CC2)nn1 (stereo unspecified) , field Percent Effect: -6.949

The molecule identified as CN(C)c1ncc(-c2ccc(F)cc2)c(C2CNCCO2)n1.Cl (stereo unspecified) registered its Percent Effect at 8.117

What the record says about Cc1cc(OCC(=O)N2CCCC(c3noc(C(C)C)n3)C2)no1 (stereo unspecified) : Percent Effect is 2.432

// Cl.Fc1ccccc1OCCc1cc(C2CNCCO2)n[nH]1 (stereo unspecified) : Percent Effect value = -0.03121

CN(C)c1ncc(-c2ccc(C(N)=O)cc2)c(C2CNCCO2)n1 (stereo unspecified) yielded Percent Effect of -5.327

What the record says about CNC(=O)N1CC[C@H]2N(C)CC[C@@]2(C(=O)N2CCOCC2)CC1.O=C(O)C(F)(F)F : Percent Effect is 9.37
